pIC50: −log10 of the molar value.
Please find below pIC50 measurements for PIK3CA (human), combined from several publications.

>  <COMPOUND>
Cc1nc2cnc3ccc(-c4cnc(N)c(C(F)(F)F)c4)nc3c2n1C1CCC(N2CCOCC2)CC1 (stereo not shown)

>  <READING_QUALIFIER>
>

>  <pIC50>
7.00

$$$$
>  <COMPOUND>
O=S(=O)(Nc1cncc(-c2cnc3ccccn23)c1)c1ccc(F)cc1

>  <READING_QUALIFIER>
=

>  <pIC50>
6.03

$$$$
>  <COMPOUND>
CC(C)(O)[C@@H]1CCCN1C1CCC(CNc2nc(N3CCOCC3)cc(-n3c(C(F)F)nc4ccccc43)n2)CC1 (stereo partly shown)

>  <READING_QUALIFIER>
=

>  <pIC50>
5.80

$$$$
>  <COMPOUND>
COc1ncc(-c2cc(OC3CCOCC3)c3nc(N)nc(C)c3c2)cc1NS(=O)(=O)c1ccc(F)cc1Cl

>  <READING_QUALIFIER>
=

>  <pIC50>
9.14

$$$$
